Origin of values: patent US20220160686A1

Parameter IC50: see the listing below.
System: human P-glycoprotein HEK cells (HEK-P-gp)
Experiment: H3K27me3 immunocytochemistry assay in P-gp expressing HEK293T cells, with or without elacridar
Type: cell-based
Conditions: Homo sapiens, HEK293, with 250 nM elacridar; 4 days compound treatment; read-out: IC50, inhibitory activity on human P-glycoprotein HEK cells (HEK-P-gp) pretreated with elacridar

COMPOUND	IC50
Cc1ncccc1-c1cc2c(n3cc(C#N)nc13)NCc1c(F)ccc3c1[C@@H](CO3)CO2	0.025 to 0.05 µM
CNC(=O)CCc1ccc(-c2cc3c(n4cnnc24)NCc2c(F)ccc4c2C(CO4)CO3)c(C)n1 (centres unmarked)	0.1 to 0.5 µM
Fc1ccc2c3c1CNc1c(cc(-c4ccc(C(F)(F)F)nc4)c4nncn14)OC[C@H]3CO2	0.1 to 0.5 µM
Cc1ncc(O)cc1-c1cc2c(n3cnnc13)NCc1c(F)ccc3c1[C@@H](CO3)CO2	0.05 to 0.1 µM
Fc1ccc2c3c1CNc1c(cc(-c4cnc(C(F)(F)F)nc4)c4nncn14)OC[C@H]3CO2	0.1 to 0.5 µM
Cc1ncccc1-c1cc2c(n3cnnc13)NCc1cccc3c1[C@H](CO3)CO2	< 0.025 µM
CCOc1ncc(-c2cc3c(n4cnnc24)NCc2c(F)ccc4c2[C@H](CO4)CO3)cn1	0.1 to 0.5 µM
Cc1ccc(C(F)F)c(-c2cc3c(n4cnnc24)NCc2c(F)ccc4c2[C@@H](CO4)CO3)n1	0.1 to 0.5 µM

----------
Reported IC50 values are given for each entry in this list.
Test system: human P-glycoprotein HEK cells (HEK-P-gp)
Assay: H3K27me3 immunocytochemistry assay in P-gp expressing HEK293T cells, with or without elacridar
Format: cell-based
Details: Homo sapiens, HEK293, with 250 nM elacridar; 4 days compound treatment; read-out: IC50, inhibitory activity on human P-glycoprotein HEK cells (HEK-P-gp) pretreated with elacridar
OBSERVED_PROPERTY: IC50

COMPOUND	OBSERVED_PROPERTY	MEASURED_RESULT
Cc1cc(-c2cc3c(n4cnnc24)NCc2c(F)ccc4c2[C@@H](CO4)CO3)ncn1	IC50	> 500 nM
CN1CCN(c2ncc(-c3cc4c(n5cnnc35)NCc3c(F)ccc5c3[C@H](CO5)CO4)cn2)CC1	IC50	50 to 100 nM
Cn1nccc1-c1cc2c(n3cnnc13)NCc1c(F)ccc3c1C(CO3)CO2 (centres unmarked)	IC50	< 25 nM
COc1ccc(-c2cc3c(n4cnnc24)NCc2c(F)ccc4c2[C@H](CO4)CO3)c(C)n1	IC50	25 to 50 nM
COc1ncc(-c2cc3c(n4cnnc24)NCc2c(F)ccc4c2[C@H](CO4)CO3)cn1	IC50	25 to 50 nM
Cc1ncccc1-c1cc2c(n3cnnc13)NCc1c(F)cccc1COC2	IC50	> 500 nM
Cn1ncc(O)c1-c1cc2c(n3cnnc13)NCc1c(F)ccc3c1C(CO3)CO2 (centres unmarked)	IC50	50 to 100 nM
Cc1ncoc1-c1cc2c(n3cnnc13)NCc1c(F)ccc3c1[C@@H](CO3)CO2	IC50	< 25 nM
Cn1nc(C(F)(F)F)cc1-c1cc2c(n3cnnc13)NCc1c(F)ccc3c1[C@H](CO3)CO2	IC50	< 25 nM
Cc1ncccc1-c1cc2c(n3cc(C(N)=O)nc13)NCc1c(F)ccc3c1[C@@H](CO3)CO2	IC50	> 500 nM
Cc1cncnc1-c1cc2c(n3cnnc13)NCc1c(F)ccc3c1[C@@H](CO3)CO2	IC50	50 to 100 nM
Cc1nccc(O)c1-c1cc2c(n3cnnc13)NCc1c(F)ccc3c1C(CO3)CO2 (centres unmarked)	IC50	> 500 nM
CC(=O)N1CCC(c2cc3c(n4cnnc24)NCc2c(F)cccc2CCO3)CC1	IC50	> 500 nM
Cc1ccnc(-c2cc3c(n4cnnc24)NCc2c(F)ccc4c2C(CO4)CO3)c1 (stereo in doubt)	IC50	> 500 nM
Cn1nc(O)cc1-c1cc2c(n3cnnc13)NCc1c(F)ccc3c1C(CO3)CO2 (centres unmarked)	IC50	50 to 100 nM
Cc1cc(Cl)cnc1-c1cc2c(n3cnnc13)NCc1c(F)ccc3c1[C@@H](CO3)CO2	IC50	> 500 nM
c1cc2c3c(c1)OC[C@H]3COc1ccc3nncn3c1NC2	IC50	> 500 nM
COC(=O)N1CCC(c2cc3c(n4cnnc24)NCc2c(F)ccc4c2C(CO4)CO3)CC1 (centres unmarked)	IC50	50 to 100 nM
Fc1ccc2c3c1CNc1c(cc(-c4ncncc4Cl)c4nncn14)OC[C@@H]3CO2	IC50	25 to 50 nM
Cc1cc(-c2cc3c(n4cnnc24)NCc2c(F)ccc4c2[C@H](CO4)CO3)cnn1	IC50	> 500 nM
Cc1cn(C)c(-c2cc3c(n4cnnc24)NCc2c(F)ccc4c2C(CO4)CO3)n1 (stereo in doubt)	IC50	50 to 100 nM
CC(=O)N1CCC(c2cc3c(n4cnnc24)NCc2cccc4c2[C@@H](CO4)CO3)CC1	IC50	100 to 500 nM
Cn1nc(F)cc1-c1cc2c(n3cnnc13)NCc1c(F)ccc3c1[C@@H](CO3)CO2	IC50	< 25 nM
Cn1nccc1-c1cc2c(n3cc(C(N)=O)nc13)NCc1c(F)ccc3c1[C@@H](CO3)CO2	IC50	100 to 500 nM
Cn1cc(Cc2cc3c(n4cnnc24)NCc2c(F)ccc4c2[C@@H](CO4)CO3)cn1	IC50	100 to 500 nM
Fc1ccc2c3c1CNc1c(cc(Br)c4nncn14)OC[C@@H]3CO2	IC50	> 500 nM
Cc1nc(O)ccc1-c1cc2c(n3cnnc13)NCc1c(F)ccc3c1[C@@H](CO3)CO2	IC50	> 500 nM
OCc1ncccc1-c1cc2c(n3cnnc13)NCc1c(F)ccc3c1C(CO3)CO2 (centres unmarked)	IC50	50 to 100 nM
Cn1cc(Cc2cc3c(n4cnnc24)NCc2c(F)cccc2COC3)cn1	IC50	> 500 nM
Cc1cc(C#N)ccc1-c1cc2c(n3cnnc13)NCc1c(F)ccc3c1[C@H](CO3)CO2	IC50	< 25 nM
Cn1nc(C(C)(C)C#N)cc1-c1cc2c(n3cnnc13)NCc1c(F)ccc3c1[C@@H](CO3)CO2	IC50	< 25 nM
Cn1cc(Cc2cc3c(n4cnnc24)NCc2cccc4c2[C@@H](CO4)CO3)cn1	IC50	100 to 500 nM

----------
System: human P-glycoprotein HEK cells (HEK-P-gp)
Test: H3K27me3 immunocytochemistry assay in P-gp expressing HEK293T cells, with or without elacridar
Assay type: cell-based
Conditions: Homo sapiens, HEK293, 96 h, without elacridar; 4 days compound treatment; read-out: IC50, inhibitory activity on human P-glycoprotein HEK cells (HEK-P-gp)
pIC50: −log10 of the molar value.

COMPOUND	pIC50
Cc1ncccc1-c1cc2c(n3cc(C(N)=O)nc13)NCc1c(F)ccc3c1[C@@H](CO3)CO2	< 6.30
Cc1ncccc1-c1cc2c(n3cnnc13)NCc1c(F)ccc3c1[C@H](CO3)CO2	< 6.30
COc1ncc(F)cc1-c1cc2c(n3cnnc13)NCc1c(F)ccc3c1[C@H](CO3)CO2	6.30 to 7.00
Fc1ccc2c3c1CNc1c(cc(-c4cnco4)c4nncn14)OC[C@@H]3CO2	6.30 to 7.00
Cc1cn(C)c(-c2cc3c(n4cnnc24)NCc2c(F)ccc4c2C(CO4)CO3)n1 (stereo in doubt)	7.00 to 7.30
Fc1ccc2c3c1CNc1c(cc(C4COC4)c4nncn14)OC[C@@H]3CO2	7.00 to 7.30
Cn1nc(O)cc1-c1cc2c(n3cnnc13)NCc1c(F)ccc3c1C(CO3)CO2 (centres unmarked)	> 7.60
Fc1ccc2c3c1CNc1c(cc(-c4cnc(C5CC5)nc4)c4nncn14)OC[C@@H]3CO2	6.30 to 7.00

----------
Test system: human P-glycoprotein HEK cells (HEK-P-gp)
Experiment: H3K27me3 immunocytochemistry assay in P-gp expressing HEK293T cells, with or without elacridar
Assay type: cell-based
Details: Homo sapiens, HEK293, with 250 nM elacridar; 4 days compound treatment; read-out: IC50, inhibitory activity on human P-glycoprotein HEK cells (HEK-P-gp) pretreated with elacridar
pIC50: −log10 of the molar value.

MOLECULE	pIC50
CN(CC(F)(F)F)C(=O)c1cc2c(n3cnnc13)NCc1c(F)ccc3c1C(CO3)CO2 (stereo not shown)	6.30 to 7.00
Fc1ccc2c3c1CNc1c(cc(-c4ccc(C(F)(F)F)cn4)c4nncn14)OCC3CO2 (stereo not shown)	< 6.30
COc1cccnc1-c1cc2c(n3cnnc13)NCc1c(F)ccc3c1[C@@H](CO3)CO2	< 6.30
Cc1ncccc1-c1cc2c(n3cnnc13)NCc1c(F)ccc3c1[C@H](CO3)CO2	< 6.30

----------
System: human P-glycoprotein HEK cells (HEK-P-gp)
Experiment: H3K27me3 immunocytochemistry assay in P-gp expressing HEK293T cells, with or without elacridar
Assay type: cell-based
Conditions: Homo sapiens, HEK293, 96 h, without elacridar; 4 days compound treatment; read-out: IC50, inhibitory activity on human P-glycoprotein HEK cells (HEK-P-gp)
Recorded IC50 for the following molecules

MOLECULE	IC50
COC(=O)N1CCC(c2cc3c(n4cnnc24)NCc2c(F)cccc2COC3)CC1	> 0.5 µM
Fc1ccc2c3c1CNc1c(cc(-c4cnc(C(F)(F)F)nc4)c4nncn14)OC[C@H]3CO2	0.1 to 0.5 µM
Cc1ncccc1-c1cc2c(n3cnnc13)NCc1cccc3c1[C@H](CO3)CO2	0.1 to 0.5 µM
Cc1cc(Cl)cnc1-c1cc2c(n3cnnc13)NCc1c(F)ccc3c1[C@@H](CO3)CO2	> 0.5 µM
Fc1ccc2c3c1CNc1c(cc(-c4ccc(C(F)(F)F)cn4)c4nncn14)OCC3CO2 (stereo not shown)	> 0.5 µM
Cc1nc(O)ccc1-c1cc2c(n3cnnc13)NCc1c(F)ccc3c1[C@@H](CO3)CO2	> 0.5 µM
Cc1ncccc1-c1cc2c(n3cc(C#N)nc13)NCc1c(F)ccc3c1[C@@H](CO3)CO2	0.05 to 0.1 µM
Cc1nc(C2CC2)ncc1-c1cc2c(n3cnnc13)NCc1c(F)ccc3c1[C@@H](CO3)CO2	< 0.025 µM
COc1nc(C)ccc1-c1cc2c(n3cnnc13)NCc1c(F)ccc3c1[C@H](CO3)CO2	0.1 to 0.5 µM
CC(=O)N1CCC(c2cc3c(n4cnnc24)NCc2c(F)cccc2CCO3)CC1	> 0.5 µM
Cc1ncoc1-c1cc2c(n3cnnc13)NCc1c(F)ccc3c1[C@@H](CO3)CO2	< 0.025 µM
CN1CCN(c2ccc(-c3cc4c(n5cnnc35)NCc3c(F)ccc5c3[C@H](CO5)CO4)cn2)CC1	0.1 to 0.5 µM
Cn1nccc1-c1cc2c(n3cc(C(N)=O)nc13)NCc1c(F)ccc3c1[C@@H](CO3)CO2	> 0.5 µM
Cc1cc(-c2cc3c(n4cnnc24)NCc2c(F)ccc4c2[C@@H](CO4)CO3)ncn1	> 0.5 µM
Fc1ccc2c3c1CNc1c(cc(-c4ncncc4Cl)c4nncn14)OC[C@@H]3CO2	0.1 to 0.5 µM
Cc1ncc(-c2cc3c(n4cnnc24)NCc2c(F)ccc4c2[C@@H](CO4)CO3)c(C)n1	0.025 to 0.05 µM
